- measurement_protocol: folding stability dG unfold from trypsin proteolysis; higher = more stable
I'd appreciate it if you could supply folding stability dG unfold values for the items below.
Provide the reading as a plain figure in kcal/mol.

# input Requested read-out: folding stability dG unfold. Entry: SAGPEREVEVETLVIEAEDGKERLVLRLVRVDGRLYLEVRRYRDGKWEEVARFEAPEEITLSPELLKALSAG [r5_490_TrROS_Hall]
# output 4.09

# input Item: SAGGSFEVEVEVERYPEENYYYVKIPIRLPNNGKKIPLDVPVPADDPEPAEKWAKFIAKELAKQGISAGGSA [r2_221_TrROS]
# output -0.0866

# input Item: SAGGAPVPVSVTVEIFKRPDGYIIKVNIPSGETKTFSSLEELEKFLKENPSLKITKRTTVPIEKYYESSAGG [r13_730_JUSTAS]
# output 1.94

# input Item: SAGGSAGGSAGGSELIFKTEDGYYVKVKLKNGKTIVFPAENLEELKKLNVEKVEVVPAKSAGGSAGGSAGGS [r4_348_TrROS_Hall]
# output 0.332

# input Item: SAGGSAGGMKYVVTVELPETGTTRTLTIPDNYTGEENVKKAVEEEAKKLGYSISKIEITKINDKSAGGSAGG [r6_718_JUSTAS]
# output 0.367

# input Item: SAGKPKPEETVTLVLEVPKENPIKVEELFEKLPDVKFVEVKVEPLPDDRVLITITVLPEDVEKIKKALGSAG [r5_554_TrMRF]
# output 3.58

# input Item: SAGGSAGGSSLKPGQELELTLTLRVEVEVEVYENGKPVERYRVEREVRLTLRLKLPAASLEDLSAGGSAGGS [r20_14_TrROS_Hall]
# output 4.06

# input Item: MDDVVRVVLPVRVRIRDPVAPDRPEREVEILLERDVPLDEESLEELLEEAERAAEELARALGGEEAEVEPVS [r1_300_TrMRF]
# output 0.135
